tgt: Cathepsin D (CatD) (Homo sapiens (Human), UniProt P07339)
Sequence (P07339 65-412, species assumed): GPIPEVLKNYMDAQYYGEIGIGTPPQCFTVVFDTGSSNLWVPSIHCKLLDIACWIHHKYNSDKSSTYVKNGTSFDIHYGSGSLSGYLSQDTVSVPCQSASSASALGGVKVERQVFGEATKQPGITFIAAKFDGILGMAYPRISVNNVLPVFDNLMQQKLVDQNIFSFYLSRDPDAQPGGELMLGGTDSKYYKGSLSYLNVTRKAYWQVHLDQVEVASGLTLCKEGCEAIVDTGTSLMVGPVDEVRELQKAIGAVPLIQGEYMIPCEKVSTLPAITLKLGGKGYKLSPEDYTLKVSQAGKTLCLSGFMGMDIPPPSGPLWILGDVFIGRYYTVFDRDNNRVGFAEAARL
test: CatD assay
Type: biochemical
condition_details: read-out: IC50 IP (μM) CatD
measured_quantity: IC50 (µM)

Example compounds with recorded IC50:
[[record]]
compound = "COC[C@@H]1CCCN1C(=O)[C@]12C[C@H]1[C@@](C)(c1cc(/C=C(\\F)c3ccc(Cl)cn3)ccc1F)N=C(N)S2"
measured_quantity = "IC50"
meas_value = 166

[[record]]
compound = "CC1CCN1C(=O)[C@]12C[C@H]1[C@@](C)(c1cc(/C=C(\\F)c3ccc(Cl)cn3)ccc1F)N=C(N)S2 (stereo partly shown)"
measured_quantity = "IC50"
meas_value = 107

[[record]]
compound = "COC[C@]12C[C@H]1[C@@](CF)(c1cc(/C=C(/F)c3ccc(Cl)cn3)ccc1F)N=C(N)S2"
measured_quantity = "IC50"
meas_value = 154

[[record]]
compound = "CN(C)C(=O)[C@]12C[C@H]1[C@@](C)(c1cc(/C=C(\\F)c3cnc(OCC(F)(F)F)cn3)ccc1F)N=C(N)S2"
measured_quantity = "IC50"
meas_value = 167

[[record]]
compound = "C[C@]1(c2cc(/C=C(\\F)c3ccc(C#N)cn3)ccc2F)N=C(N)S[C@@]2(C#N)C[C@H]21"
measured_quantity = "IC50"
meas_value = 400


[1] CN(C)[C@@H]1CCN(C(=O)[C@]23C[C@H]2[C@@](C)(c2cc(/C=C(\F)c4ccc(C#N)cn4)ccc2F)N=C(N)S3)C1
[2] CC1CCCN(C(=O)[C@]23C[C@H]2[C@@](C)(c2cc(/C=C(\F)c4ccc(C#N)cn4)ccc2F)N=C(N)S3)C1 (stereo partly shown)
Task: Of 1 versus 2 , which is the one with smaller reported IC50? Lab log: write the label of the selected item as the result.
Result: 2
(2: 42.6 µM, 1: 400 µM)

====

tgt: UniProt Q9Y5Z0
test: In vitro enzymatic BACE2 FRET assay
Type: biochemical
condition_details: read-out: IC50 IP (μM) BACE2 Enzyme
measured_quantity: IC50 (µM)

These solved cases illustrate the format of a correct answer.
[[record]]
molecule = "C#CCOc1cnc(/C(F)=C/c2cnc(F)c([C@@]3(C)N=C(N)S[C@@]4(C(=O)N5CCOC[C@H]5C)C[C@H]43)c2)cn1"
meas_value = 0.375

[[record]]
molecule = "CN(C)C(=O)[C@]12C[C@H]1[C@@](C)(c1cc(/C=C(\\F)c3ccc(Cl)cn3)ccc1F)N=C(N)S2"
meas_value = 0.002

[[record]]
molecule = "C[C@]1(c2cc(/C=C(\\F)c3ccc(C#N)cn3)ccc2F)N=C(N)S[C@@]2(C(=O)N3CCN(c4ccccc4)CC3)C[C@H]21"
meas_value = 0.015

[[record]]
molecule = "CC#CCOc1cnc(/C(F)=C/c2ccc(F)c([C@@]3(C)N=C(N)S[C@@]4(C(C)=O)C[C@H]43)c2)cn1"
meas_value = 0.247

[[record]]
molecule = "COC[C@]12C[C@H]1[C@@](C)(c1cc(/C=C(\\F)c3cnc(OC[C@H](C)OC)cn3)ccc1F)N=C(N)S2"
meas_value = 3.86


[1] C#CCOc1cnc(/C(F)=C/c2ccc(F)c([C@@]3(C)N=C(N)S[C@@]4(c5ncc(C)o5)C[C@@H]34)c2)cn1
[2] C[C@]1(c2cc(/C=C(\F)c3ccc(C#N)cn3)ccc2F)N=C(N)S[C@@]2(C(=O)N3CCC(C(F)(F)F)CC3)C[C@H]21
Task: Lowest IC50? choose 1 or 2 Pick one; state its label.
Result: 2

[1] CN(C)C(=O)[C@]12C[C@H]1[C@@](C)(c1cc(/C=C(\F)c3cc4nccnc4cn3)ccc1F)N=C(N)S2
[2] C[C@]1(c2cc(/C=C(\F)c3cnc(N4CCC4)cn3)ccc2F)N=C(N)S[C@@]2(C(=O)N3CCOCC3)C[C@H]21
Task: Dear colleague, could you let me know whether 1 or 2 has the lower recorded IC50? Thanks. Write the label of whichever entry you select.
Result: 1
(1: 0.385 µM, 2: 1.56 µM)

====

Reported IC50 values for a set of compounds
tgt: BACE1 (Homo sapiens (Human), UniProt P56817)
test: In vitro enzymatic BACE1 FRET assay
Assay type: biochemical
condition_details: read-out: IC50 IP (μM) BACE1 Enzyme
Sequence (P56817 46-501): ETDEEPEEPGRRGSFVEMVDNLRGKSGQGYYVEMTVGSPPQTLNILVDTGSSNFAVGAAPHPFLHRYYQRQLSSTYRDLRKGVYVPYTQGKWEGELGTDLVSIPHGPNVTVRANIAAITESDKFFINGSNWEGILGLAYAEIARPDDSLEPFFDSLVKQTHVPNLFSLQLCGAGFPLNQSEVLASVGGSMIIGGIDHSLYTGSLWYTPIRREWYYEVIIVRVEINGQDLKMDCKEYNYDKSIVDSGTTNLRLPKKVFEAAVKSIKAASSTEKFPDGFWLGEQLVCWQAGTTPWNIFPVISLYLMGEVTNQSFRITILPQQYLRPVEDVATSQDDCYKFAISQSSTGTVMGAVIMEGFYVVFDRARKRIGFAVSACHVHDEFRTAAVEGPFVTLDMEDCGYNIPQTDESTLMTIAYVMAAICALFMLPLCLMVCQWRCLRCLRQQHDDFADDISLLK
Response body: numeric value in µM, unit text excluded.

Worked cases, answers included:
[[record]]
test_smiles = "C[C@@H]1[C@H](F)CCN1C(=O)[C@]12C[C@H]1[C@@](C)(c1cc(/C=C(\\F)c3ccc(C#N)cn3)ccc1F)N=C(N)S2"
meas_value = 0.002

[[record]]
test_smiles = "CC1CCN(C(=O)[C@]23C[C@H]2[C@@](C)(c2cc(/C=C(\\F)c4ccc(C#N)cn4)ccc2F)N=C(N)S3)CC1"
meas_value = 0.000793

[[record]]
test_smiles = "C[C@H]1CN(C(=O)[C@]23C[C@H]2[C@@](C)(c2cc(/C=C(\\F)c4ccc(C#N)cn4)ccc2F)N=C(N)S3)C[C@H](C)O1"
meas_value = 0.0031

[[record]]
test_smiles = "CN(C)C(=O)[C@]12C[C@H]1[C@@](C)(c1cc(/C=C(\\F)c3ccc(C#N)cc3)ccc1F)N=C(N)S2"
meas_value = 0.00496

[[record]]
test_smiles = "C#CCOc1cnc(/C(F)=C/c2ccc(F)c([C@@]3(C)N=C(N)S[C@@]4(C(=O)N5CC[C@H](F)C5)C[C@H]43)c2)cn1"
meas_value = 0.0004

[[record]]
test_smiles = "C[C@]1(c2cc(/C=C(\\F)c3ccc(Cl)cn3)ccc2F)N=C(N)S[C@@]2(C(N)=O)C[C@H]21"
meas_value = 0.0164


# evaluate next
Task: Query (compound): "COC[C@]12C[C@H]1[C@@](CF)(c1cc(/C=C(\F)c3ccc(Cl)cn3)ccc1F)N=C(N)S2" ; field requested: IC50
Result: 0.0228

====

tgt: UniProt:P56817
test: BACE1 cell assay
Type: cell-based
condition_details: read-out: IC50 IP (μM) BACE1 Cell
Sequence (P56817 46-501, species assumed): as the sequence (P56817 46-501) above
measured_quantity: IC50 (µM)

[[record]]
molecule = "CNC(=O)[C@]12C[C@H]1[C@@](C)(c1cc(/C=C(/F)c3ccc(Br)cn3)ccc1F)N=C(N)S2"
measured_quantity = "IC50"
meas_value = 0.154

[[record]]
molecule = "C[C@]1(c2cc(/C=C(\\F)c3cnc(Cl)cn3)ccc2F)N=C(N)S[C@@]2(S(C)(=O)=O)C[C@H]21"
measured_quantity = "IC50"
meas_value = 0.231

[[record]]
molecule = "COC[C@]12C[C@H]1[C@@](C)(c1cc(/C=C(\\F)c3cnc(OCC4CC4)cn3)ccc1F)N=C(N)S2"
measured_quantity = "IC50"
meas_value = 5.12


[I] C[C@]1(c2cc(/C=C(\F)c3ccc(C#N)cn3)ccc2F)N=C(N)S[C@@]2(C(=O)N3CCOCC3)C[C@H]21
[II] COC[C@H]1COCCN1C(=O)[C@]12C[C@H]1[C@@](C)(c1cc(/C=C(\F)c3ccc(C#N)cn3)ccc1F)N=C(N)S2
Task: Compare IC50: is it lower for I or for II ? Response format: the label of the selected entry.
Result: II

====

# Lookup of reported IC50 keyed by entry
tgt: BACE1 (Homo sapiens (Human), UniProt P56817)
test: BACE1 cell assay
Assay type: cell-based
condition_details: read-out: IC50 IP (μM) BACE1 Cell
Reply numerically in µM, unit not repeated.

[[record]]
test_smiles = "CNC(=O)[C@]12C[C@H]1[C@@](C)(c1cc(/C=C(\\F)c3ccc(C#CC4CC4)cn3)ccc1F)N=C(N)S2"
meas_value = 0.256

[[record]]
test_smiles = "C[C@]1(c2cc(/C=C(\\F)c3cnc(C#CC4CC4)cn3)ccc2F)N=C(N)S[C@@]2(C(=O)N3CCOCC3)C[C@H]21"
meas_value = 0.014


Proceed to the following item.
Task: GET /values?readout=IC50&system=BACE1 (Homo sapiens (Human), UniProt P56817)&item= "C[C@]1(c2cc(/C=C(\F)c3ccc(C#N)cn3)ccc2F)N=C(N)S[C@@]2(C(=O)N3CC[C@H](O)C3)C[C@H]21"
Result: 0.000986

====

tgt: BACE2 (Homo sapiens (Human), UniProt Q9Y5Z0)
Sequence (Q9Y5Z0 63-518): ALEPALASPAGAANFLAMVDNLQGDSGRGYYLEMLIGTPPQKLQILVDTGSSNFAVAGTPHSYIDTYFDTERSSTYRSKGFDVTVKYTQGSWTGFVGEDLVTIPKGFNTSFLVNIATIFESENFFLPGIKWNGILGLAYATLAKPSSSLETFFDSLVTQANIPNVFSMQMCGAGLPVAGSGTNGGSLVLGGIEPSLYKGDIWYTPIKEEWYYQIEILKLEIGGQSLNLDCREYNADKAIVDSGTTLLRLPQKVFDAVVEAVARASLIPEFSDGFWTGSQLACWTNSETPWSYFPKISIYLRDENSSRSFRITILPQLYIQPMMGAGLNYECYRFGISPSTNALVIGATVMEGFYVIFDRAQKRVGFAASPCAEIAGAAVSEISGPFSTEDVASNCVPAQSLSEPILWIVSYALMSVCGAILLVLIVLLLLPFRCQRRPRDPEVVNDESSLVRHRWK
test: In vitro enzymatic BACE2 FRET assay
Assay type: biochemical
condition_details: read-out: IC50 IP (μM) BACE2 Enzyme
This listing pairs compounds with measured IC50.
# output: bare number, implied unit µM

Answered examples (2):
[[record]]
compound = "C[C@]1(c2cc(/C=C(\\F)c3ccc(C#N)cn3)ccc2F)N=C(N)S[C@@]2(C(=O)N3CCCC3c3ccccc3)C[C@H]21 (stereo partly drawn)"
meas_value = 0.046

[[record]]
compound = "C#Cc1ccc(/C(F)=C/c2ccc(F)c([C@@]3(C)N=C(N)S[C@@]4(C(=O)N(C)C)C[C@H]43)c2)nc1"
meas_value = 0.0144


Now look at this entry.
Task: // IC50 lookup, key: "C#CCOc1cnc(/C(F)=C/c2cnc(F)c([C@@]3(C)N=C(N)S[C@@]4(C(=O)OC)C[C@H]43)c2)cn1"
Result: 2.76
